System tested: UniProtKB Q6TEK8
Assay details: Fluorometric activity assay of purified TrVKORL
Format: biochemical
Measurement conditions: warfarin IC50, DTT as reductant, 500 nM enzyme, K as substrate
Measure: IC50 (µM)
Answers are plain numbers, in µM.

I'd like to know its IC50. The molecule in question is CC(=O)CC(c1ccccc1)c1c(O)c2ccccc2oc1=O (stereo not shown) [warfarin] 3.8

====

System tested: purified TrVKORL (Takifugu rubripes, UniProt Q6TEK8)
Sequence (Q6TEK8 whole entry): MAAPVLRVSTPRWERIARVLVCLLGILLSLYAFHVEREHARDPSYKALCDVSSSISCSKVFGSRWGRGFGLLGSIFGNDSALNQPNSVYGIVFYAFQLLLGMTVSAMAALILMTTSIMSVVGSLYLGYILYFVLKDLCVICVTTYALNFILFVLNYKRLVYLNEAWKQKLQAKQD
Assay details: Fluorometric activity assay of purified TrVKORL
Type: biochemical
Measurement conditions: IC50 of warfarin, in presence of GSH, enzyme concentration 500 nM, KO or K
Measure: IC50

I'd like to know its IC50. The molecule in question is CC(=O)CC(c1ccccc1)c1c(O)c2ccccc2oc1=O (stereo not shown) [warfarin] 250 to 260 nM
